src = patent US10370352B2

Provide the reported Efficacy of each item.
target: recombinant human ASK1 (hASK1) catalytic domain (Homo sapiens (Human)); assay: ASK1 enzymatic assay (ADP-Glo Kinase Assay); format: biochemical; conditions: hASK1 enzymatic assay; standard benzamide ASK1 inhibitor = 100% inhibition, DMSO = 0%
Sequence (Q99683 680-938): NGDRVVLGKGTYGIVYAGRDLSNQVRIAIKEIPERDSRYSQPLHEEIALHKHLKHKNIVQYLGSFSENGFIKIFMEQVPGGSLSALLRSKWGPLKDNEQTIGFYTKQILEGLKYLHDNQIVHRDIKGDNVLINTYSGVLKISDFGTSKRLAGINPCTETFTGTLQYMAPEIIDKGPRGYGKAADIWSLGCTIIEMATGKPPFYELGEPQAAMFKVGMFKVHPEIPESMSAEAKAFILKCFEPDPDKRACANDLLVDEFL
The answer is to be given in %; state only the numeric part.

IN: Efficacy of CC(C)n1cnnc1-c1cccc(N2CCN(C3CC(n4cnc(C(F)(F)F)c4)C3)C2=O)n1 (stereo not drawn) on recombinant human ASK1 (hASK1) catalytic domain (Homo sapiens (Human))?
OUT: 100

IN: Efficacy of CC(C)n1cnnc1-c1cccc(N2CCN(C3CC(n4cnc(C5CC5)n4)C3)C2=O)n1 (stereo not drawn) on recombinant human ASK1 (hASK1) catalytic domain (Homo sapiens (Human))?
OUT: 100

IN: Efficacy of CC(C)n1cnnc1-c1cccc(N2CCN(C3CC(n4cnc(C(C)(C)C)c4)C3)C2=O)n1 (stereo not drawn) on recombinant human ASK1 (hASK1) catalytic domain (Homo sapiens (Human))?
OUT: 100
